These entries and their values trace back to patent US10670605B2.

# MEASURED TARGET: UBE2S C118 (Q16763) (Homo sapiens)
# Sequence (Q16763 1-222): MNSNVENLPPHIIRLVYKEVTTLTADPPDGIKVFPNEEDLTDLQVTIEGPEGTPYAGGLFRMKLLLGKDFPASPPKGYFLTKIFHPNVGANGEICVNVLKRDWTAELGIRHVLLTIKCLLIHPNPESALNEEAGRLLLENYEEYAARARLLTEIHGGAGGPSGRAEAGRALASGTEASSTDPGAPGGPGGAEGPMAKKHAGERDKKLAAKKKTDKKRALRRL
# MEASUREMENT DESCRIPTION: Competitive isoTOP-ABPP, cell lysates
# Format: binding
# CONDITION: 500 μm in-vitro ramos_231
METRIC NAME: isoTOP-ABPP ratio (reactivity profile), Q16763_C118

COMPOUND: CC(Cl)C(=O)Nc1cc(C(F)(F)F)cc(C(F)(F)F)c1 (centres unmarked)
MEASURED TARGET: UBE2S C118 (Q16763) (Homo sapiens)
TEST RESULT: 1.0

COMPOUND: COc1ccccc1OCCNC(=O)CCl
MEASURED TARGET: UBE2S C118 (Q16763) (Homo sapiens)
TEST RESULT: 1.0

COMPOUND: CC(C)CCOCCNC(=O)CCl
MEASURED TARGET: UBE2S C118 (Q16763) (Homo sapiens)
TEST RESULT: 0.8

COMPOUND: N#C/C(=C\c1cc(C(F)(F)F)cc(C(F)(F)F)c1)C(N)=O
MEASURED TARGET: UBE2S C118 (Q16763) (Homo sapiens)
TEST RESULT: 1.6

COMPOUND: O=C(CCl)NC12CC3CC(CC(C3)C1)C2
MEASURED TARGET: UBE2S C118 (Q16763) (Homo sapiens)
TEST RESULT: 0.9

----------
# MEASURED TARGET: cysteines in MDA-MB-231 and Ramos cells (Homo sapiens)
# Sequence (P22307 1-547): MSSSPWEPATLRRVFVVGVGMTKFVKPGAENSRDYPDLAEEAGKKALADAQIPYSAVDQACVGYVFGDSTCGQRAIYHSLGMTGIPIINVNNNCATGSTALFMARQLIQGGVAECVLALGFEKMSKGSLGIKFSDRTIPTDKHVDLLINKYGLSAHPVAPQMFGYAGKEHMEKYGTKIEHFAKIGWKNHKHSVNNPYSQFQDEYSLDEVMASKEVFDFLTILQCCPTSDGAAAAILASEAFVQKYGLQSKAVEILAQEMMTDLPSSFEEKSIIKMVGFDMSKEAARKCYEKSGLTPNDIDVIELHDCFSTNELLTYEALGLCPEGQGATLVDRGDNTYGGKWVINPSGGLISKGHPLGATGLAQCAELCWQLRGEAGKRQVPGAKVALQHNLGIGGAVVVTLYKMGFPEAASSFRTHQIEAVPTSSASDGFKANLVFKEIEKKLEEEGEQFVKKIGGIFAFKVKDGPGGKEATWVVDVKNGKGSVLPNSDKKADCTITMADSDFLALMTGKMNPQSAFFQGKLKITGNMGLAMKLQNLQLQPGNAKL
# MEASUREMENT DESCRIPTION: Competitive isoTOP-ABPP in situ (fragment-treated cells)
# Type: cell-based
# CONDITION: 200 μM, insitu, 231
METRIC NAME: isoTOP-ABPP ratio P22307_C71

COMPOUND: O=C(CCl)NC12CC3CC(CC(C3)C1)C2
METRIC NAME: isoTOP-ABPP ratio P22307_C71
TEST RESULT: 8.3
//
COMPOUND: O=C(CCl)Nc1cccc2ncccc12
METRIC NAME: isoTOP-ABPP ratio P22307_C71
TEST RESULT: 5.6
//
COMPOUND: O=C(CCl)NCCc1c[nH]c2ccccc12
METRIC NAME: isoTOP-ABPP ratio P22307_C71
TEST RESULT: 4.9
//
COMPOUND: CC(C)CCOCCNC(=O)CCl
METRIC NAME: isoTOP-ABPP ratio P22307_C71
TEST RESULT: 20.0
//
COMPOUND: O=C(CCl)NC(=O)NC12CC3CC(CC(C3)C1)C2
METRIC NAME: isoTOP-ABPP ratio P22307_C71
TEST RESULT: 3.7
//
COMPOUND: CC1CCc2ccccc2N1C(=O)CCl (centres unmarked)
METRIC NAME: isoTOP-ABPP ratio P22307_C71
TEST RESULT: 16.8
//
COMPOUND: Cc1ccc(C=C(C#N)C(=O)NCCN2CCOCC2)cc1
METRIC NAME: isoTOP-ABPP ratio P22307_C71
TEST RESULT: 1.2
//
COMPOUND: O=C(CCl)N1CCN(S(=O)(=O)c2ccccc2F)CC1
METRIC NAME: isoTOP-ABPP ratio P22307_C71
TEST RESULT: 8.3
